The reported numbers originate from PubChem BioAssay AID624129.

test target: C-C chemokine receptor type 6 (Homo sapiens)
method notes: potency against CXCR6 with APJ panel – cell-based, beta-arrestin, DiscoveRx, uHTS hits, dose response (AID 624129)
condition info: CXCR6 beta-arrestin (DiscoveRx) antagonist cell assay, CCR6, dose range 1, mean IC50 across replicates
Attribute: pIC50
Lab note — pIC50 values are minus log10 of concentrations in M.

compound: COCc1cc(=O)[nH]c(Nc2nc3ccc(C)cc3o2)n1
experimental readout: pIC50
value measured: 5.34

compound: CC(Oc1ccc(Br)cc1)C(=O)Nc1nc(-c2ccccn2)cs1 (configuration not stated)
experimental readout: pIC50
value measured: 5.18

Switching to the query record.
Query: pIC50; subject: `O=C(Nc1nc(-c2ccccn2)cs1)Nc1ccc(F)cc1F`
5.00
